- System: SW-620 colon
- measurement_description: NCI-60 one-dose screen, 48 h
- run_conditions: 10 µM unless noted
About 83,000 compounds went through this panel and 20% of them were active in at least one assay; those are over-represented in the sample as a whole. The source made the active and inactive calls. The calls were made as follows: active = growth percent below 10; inactive = the rest.
Choose the fitting class; nothing outside TRUE (active), FALSE (inactive) is accepted.

Answered examples (5):
smiles_input | tgt | class_label
C=C(C)[C@@H]1CC[C@]2(CN)CC[C@]3(C)[C@H](CC[C@@H]4[C@@]5(C)CCC(=O)NC(C)(C)[C@@H]5CC[C@]43C)[C@@H]12 | SW-620 colon | FALSE
O=[N+]([O-])c1ccc(/C=N\Nc2ccccc2)cc1 | SW-620 colon | FALSE
C=C(C)[C@@H]1CC[C@]2(C(=O)N3CCN(CC)CC3)CC[C@]3(C)[C@H](CC[C@@H]4[C@@](C)(CCC(=O)N5CCN(CC)CC5)[C@H](C(=C)C)CC[C@]43C)[C@@H]12 | SW-620 colon | FALSE
NC(=O)NCC1CCCCC1 | SW-620 colon | FALSE
CC/C=C\C[C@H]1CC=C2C(=O)C=C[C@@H]2CC=CCCCC(=O)O[C@@H](CCCCC)CC=C2C(=O)C=C[C@@H]2CC=CCCCC(=O)O[C@@H](CCCCC)CC=C2C(=O)C=C[C@@H]2CC=CCCCC(=O)O[C@@H](CCCCC)CC=C2C(=O)C=C[C@@H]2CC=CCCCC(=O)O1 | SW-620 colon | TRUE

[Q] So what was the verdict on "COc1ccc2c(c1)c(-c1nc(-c3c[nH]c4ncccc34)cs1)cn2CCNC(=O)OC(C)(C)C" in this test?
[A] FALSE

[Q] // same read-out, input: "Cc1ccc(-c2nc([P+](c3ccccc3)(c3ccccc3)c3ccccc3)c(N3CCOCC3)o2)cc1"
[A] TRUE

[Q] Would you mind doing "Cn1cc(-c2nc(-c3c[nH]c4ncccc34)cs2)c2cc(Cl)ccc21" as well?
[A] FALSE

[Q] Then "Cc1ccc(S(=O)(=O)Nc2ccc(-c3cc(-c4cccc(F)c4)c(C#N)c(=O)[nH]3)cc2)cc1" ?
[A] FALSE
